- System: Serratia BOT
- protocol-notes: MIC, standard serial dilution on nutrient agar
- Type: cell-based
- recorded-conditions: Serratia, 18 h
Quick reference: MIC of the listed items.
measurement-label: MIC (µg/mL)

[
  {
    "molecule": "NCC1OC(OC2C(N)CC(N)C(OC3OC(CO)C(O)C(N)C3O)C2O)C(O)C(O)C1O (centres unmarked)",
    "endpoint-unit": "µg/mL",
    "recorded-value": 6.25
  },
  {
    "molecule": "NC[C@@H]1CC[C@@H](N)[C@@H](O[C@H]2[C@H](O)[C@@H](O[C@H]3O[C@H](CO)[C@@H](O)[C@H](N)[C@H]3O)[C@H](N)C[C@@H]2N)O1",
    "endpoint-unit": "µg/mL",
    "recorded-value": 25
  },
  {
    "molecule": "NCC1CCC(O)C(OC2C(N)CC(N)C(OC3OC(CO)C(O)C(N)C3O)C2O)O1 (centres unmarked)",
    "endpoint-unit": "µg/mL",
    "recorded-value": 50
  },
  {
    "molecule": "NCCC(O)C(=O)NC1CC(N)C(OC2OC(CN)CCC2O)C(O)C1OC1OC(CO)C(O)C(N)C1O (centres unmarked)",
    "endpoint-unit": "µg/mL",
    "recorded-value": 6.25
  },
  {
    "molecule": "NCC[C@H](O)C(=O)N[C@@H]1C[C@H](N)[C@@H](O[C@H]2O[C@H](CN)[C@@H](O)[C@H](O)[C@H]2O)[C@H](O)[C@H]1O[C@H]1O[C@H](CO)[C@@H](O)[C@H](N)[C@H]1O",
    "endpoint-unit": "µg/mL",
    "recorded-value": 12.5
  }
]
